Test: Microsomal stability assay, human
Assay type: in vitro ADME
Details: microsomes, pH 7.41
experimental endpoint: half-life at 1 μM

Give me measured half-life at 1 μM, please, for this compound: CC(C)(C)[C@H](NS(=O)(=O)C(F)(F)F)C(=O)N1[C@@H]2CC[C@@H](C2)[C@H]1C(=O)N[C@@H](C[C@@H]1CCNC1=O)C(=O)c1nc2ccccc2s1 [11e]
> 2 h

###

Test: Microsomal stability assay, human
Assay type: in vitro ADME
Details: microsomes, pH 7.41
half-life at 0.75 h, 1 µM values by entry
Give a bare numeral; the unit min is implied.

Field: example entries. Status: answers known.
Tell us which half-life at 0.75 h, 1 µM value is on record for CC(C)(C)[C@H](NC(=O)C(F)(F)F)C(=O)N1[C@@H]2CC[C@@H](C2)[C@H]1C(=O)N[C@@H](C[C@@H]1CCNC1=O)C(=O)c1nc2ccccc2s1 [11b]
11.6

Tell me its half-life at 0.75 h, 1 µM given [2H]C([2H])([2H])C(=O)N[C@H](C(=O)N1[C@@H]2CC[C@@H](C2)[C@H]1C(=O)N[C@@H](C[C@@H]1CCNC1=O)C(=O)c1nc2ccccc2s1)C(C)(C)C [11d] as the entry.
42.2

Name the recorded half-life at 0.75 h, 1 µM of the item CC(C)(C)[C@H](NC(=O)C(F)(F)F)C(=O)N1C[C@H]2[C@@H]([C@H]1C(=O)N[C@H](C#N)C[C@@H]1CCNC1=O)C2(C)C [nirmatrelvir, reference compound] in your answer.
35.5

---
Answer with the recorded half-life at 0.75 h, 1 µM of CC(C)(F)C(=O)N[C@H](C(=O)N1[C@@H]2CC[C@@H](C2)[C@H]1C(=O)N[C@@H](C[C@@H]1CCNC1=O)C(=O)c1nc2ccccc2s1)C(C)(C)C [11c] only.
18

Please report half-life at 0.75 h, 1 µM for the following molecule: CN(C)S(=O)(=O)N[C@H](C(=O)N1[C@@H]2CC[C@@H](C2)[C@H]1C(=O)N[C@@H](C[C@@H]1CCNC1=O)C(=O)c1nc2ccccc2s1)C(C)(C)C [11f]
3.25

###

Assay: Microsomal stability assay, mouse
Assay type: in vitro ADME
Conditions: microsomes, pH 7.41
experimental endpoint: half-life at 1 μM

Answer with the recorded half-life at 1 μM of CC(C)(C)[C@H](NS(=O)(=O)C(F)(F)F)C(=O)N1[C@@H]2CC[C@@H](C2)[C@H]1C(=O)N[C@@H](C[C@@H]1CCNC1=O)C(=O)c1nc2ccccc2s1 [11e] only.
> 2 h
